# test_method_notes: AUC (0 to infinity) in mouse at 1 mg/kg, iv measured up to 24 hrs by LC-MS/MS analysis
# Format: ADME, organism-based
# Design: route intravenous, dose 1 mg/kg, time <=24
# details: in vivo
assay_readout: AUC(0-inf) (ng·h/mL)
Lab book: enter the figure in ng·h/mL, no units written.

Exam item: Answer with the recorded AUC(0-inf) for the compound listed here: `CCN(C(=O)C1CC1)c1cc(-c2ccc(N3CCN(CC4CC4)CC3)nc2C)cc(C(=O)NCc2c(C)cc(C)[nH]c2=O)c1C`
Marked response: 372

###

# test_method_notes: Apparent volume of distribution in rat at 1 mg/kg, iv
# Assay type: ADME, organism-based
# details: in vivo, read-out: Vz
We label by threshold. Values of Vd strictly beneath 5 L/kg are y. Values of 5 L/kg and up are n.

structure	group_label
CCN1CCN(c2ccc(-c3cc(C(=O)NCc4c(C)cc(C)[nH]c4=O)c(C)c(N(CC)C(=O)C4CC4)c3)cc2)CC1	n
CCN(C(=O)C1CC1)c1cc(-c2ccc(N3CCN(CC4CC4)CC3)nc2)cc(C(=O)NCc2c(C)cc(C)[nH]c2=O)c1C	n
CCN(C(=O)C1CC1)c1cc(-c2ccc(CN3CCOCC3)cc2)cc(C(=O)NCc2c(C)cc(C)[nH]c2=O)c1C	y
CCN(C(=O)C1CCCC1)c1cc(-c2ccc(CN3CCOCC3)cc2)cc(C(=O)NCc2c(C)cc(C)[nH]c2=O)c1C	y

We now examine a further molecule.
Exam item: Input `CCN(C(=O)C1CC1)c1cc(-c2ccc(N3CCN(CC4CC4)CC3)nc2C)cc(C(=O)NCc2c(C)cc(C)[nH]c2=O)c1C` ; condition: Vd strictly below 5 L/kg. Does it hold?
Marked response: n
